Taken from patent US5763474A.

test system: Isolated Rat Bladder Strips; assay: Inhibition of Contractions in Isolated Rat Bladder Strips (15 mM KCl-enhanced contractile activity); design: species or system Sprague-Dawley rats; conditions: 0.5 h; at 30 μM, isolated rat bladder strips; read-out: Percent contraction at 30 μM (C)
Label criterion met when activity at 30 µM < 90%; otherwise criterion not met.

Smiles | Qualitative Label
CCC(C)(C)Nc1c(NCc2ccc(Cl)c(Cl)c2)c(=O)c1=O | criterion met
CCCC(=O)N(Cc1c(C)cc(Cl)cc1Cl)c1c(NC(C)(C)CC)c(=O)c1=O | criterion not met
CC(C)(C)Nc1c(NCc2ccc(Cl)c(Cl)c2)c(=O)c1=O | criterion met
CCCC(=O)N(Cc1ccc(Cl)cc1Cl)c1c(NC(C)(C)CC)c(=O)c1=O | criterion met
